Entries and their AUC(0-t) values follow.
# procedureText: Pharmacokinetics in male Han Wistar rats, intravenous and oral
# Assay type: in vivo
# studyConditions: male, Han Wistar, plasma; rat, IV, 2.0 mg/kg
propertyName: AUC(0-t) (ng·h/mL)

O=C(O)c1ccc(C2(NC(=O)c3cc(Cl)cnc3N3CC(Oc4ccccc4)C3)CC2)cc1    3090
O=C(O)c1ccc(C2(NC(=O)c3cc(Cl)cnc3N3CC(Oc4cccc(F)c4)C3)CC2)cc1    3290

###

# testedSystem: human EP4 receptor (Homo sapiens)
# Construct: membrane fraction used
# Sequence (P35408 whole entry): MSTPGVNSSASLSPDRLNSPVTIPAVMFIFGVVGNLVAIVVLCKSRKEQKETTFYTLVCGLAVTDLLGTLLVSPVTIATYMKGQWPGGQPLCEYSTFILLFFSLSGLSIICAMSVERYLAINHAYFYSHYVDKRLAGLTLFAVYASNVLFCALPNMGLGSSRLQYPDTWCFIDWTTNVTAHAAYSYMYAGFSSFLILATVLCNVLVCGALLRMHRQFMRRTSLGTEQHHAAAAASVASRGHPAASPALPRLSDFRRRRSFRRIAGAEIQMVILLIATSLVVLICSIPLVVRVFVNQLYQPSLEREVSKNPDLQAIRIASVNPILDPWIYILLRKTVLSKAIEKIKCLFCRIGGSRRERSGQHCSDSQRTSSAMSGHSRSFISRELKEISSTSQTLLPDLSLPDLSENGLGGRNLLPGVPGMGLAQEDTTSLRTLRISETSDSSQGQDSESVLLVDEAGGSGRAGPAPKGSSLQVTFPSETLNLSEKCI
# procedureText: cAMP assay (AlphaScreen) on human EP4 membrane of transfected cells, antagonism of PGE2
# studyConditions: HEK293 hEP4 cell membrane stimulated with PGE2 3 nM; read-out: functional IC50
# note: exactly 40 nM is not below, so it is NOT MET; use MET for IC50 strictly under it

O=C(O)c1ccc(C2(NC(=O)c3cc(C(F)(F)F)cnc3N3CC(Nc4ccc(F)cc4)C3)CC2)cc1 [E 50]    MET
O=C(O)c1ccc(C2(NC(=O)c3cc(Cl)cnc3N3CC(Oc4cccc(N5CCNCC5)c4)C3)CC2)cc1 [E 21]    NOT MET
O=C(O)c1ccc(C2(NC(=O)c3cc(C(F)(F)F)cnc3N3CC(Oc4cccc(F)c4)C3)CC2)cc1 [E 38]    MET
O=C(O)c1ccc(C2(NC(=O)c3cc(Cl)cnc3N3CCC(Oc4cccc(C(F)(F)F)c4)C3)CC2)cc1 (single isomer, unassigned) [E 65]    NOT MET
O=C(O)c1ccc(C2(NC(=O)c3cc(C(F)(F)F)cnc3N3CC(Oc4ccc(F)c(F)c4)C3)CC2)cc1 [E 45]    MET
O=C(O)c1ccc(C2(NC(=O)c3cc(C(F)(F)F)cnc3N3CC(Oc4ccc(F)c(C(F)(F)F)c4)C3)CC2)cc1 [E 42]    MET
O=C(O)c1ccc(C2(NC(=O)c3cc(Cl)cnc3N3CC(Oc4ccc(F)cc4F)C3)CC2)cc1 [E 19]    NOT MET
O=C(O)c1ccc(C2(NC(=O)c3cc(Cl)cnc3N3CC(Oc4cccc(C(F)(F)F)c4)C3)CC2)cc1 [E 14]    MET
O=C(O)c1ccc(C2(NC(=O)c3cc(Cl)cnc3N3CC(O)(c4ccc(F)cc4)C3)CC2)cc1 [E 28]    NOT MET
O=C(NC1(c2ccc(-c3nnn[nH]3)cc2)CC1)c1cc(Cl)cnc1N1CC(Oc2cccc(F)c2)C1 [E 82]    MET
O=C(O)c1ccc(C2(NC(=O)c3cc(Cl)cnc3N3CC(Oc4ccc(F)c(C(F)(F)F)c4)C3)CC2)cc1 [E 17]    NOT MET
O=C(O)c1ccc(C2(NC(=O)c3cc(C(F)(F)F)cnc3N3CC(Nc4cccc(F)c4)C3)CC2)cc1 [E 49]    NOT MET
O=C(O)c1ccc(C2(NC(=O)c3cc(Cl)cnc3N3CC(Oc4ccccc4)C3)CC2)cc1 [E 10]    NOT MET
Cc1cc(F)ccc1NC1CN(c2ncc(Cl)cc2C(=O)NC2(c3ccc(C(=O)O)cc3)CC2)C1 [E 34]    NOT MET
O=C(O)c1ccc(C2(NC(=O)c3cc(Cl)cnc3N3CC[C@H](Oc4cccc(F)c4)C3)CC2)cc1 [E 80]    NOT MET
